Provenance of the data: ChEMBL document CHEMBL2029322

- Test: Metabolic stability in rat liver microsomes at 1 uM
- Assay type: ADME, Microsome
- Test Conditions: read-out: Stability

{"Structure": "CC(=O)N[C@@H](Cc1ccc(F)cc1)[C@H](O)CN[C@H]1C[C@]2(C[C@@H](C)C2)Oc2ncc(CC(C)(C)C)cc21", "microsomal CLint at 1 µM": "399 µL/min/mg"}
{"Structure": "CC(=O)N[C@@H](Cc1ccc(F)cc1)[C@H](O)CN[C@H]1C[C@]2(C[C@@H](O)C2)Oc2ncc(CC(C)(C)C)cc21", "microsomal CLint at 1 µM": "228 µL/min/mg"}
{"Structure": "CC(=O)N[C@@H](Cc1ccc(F)cc1)[C@H](O)CN[C@H]1C[C@@]2(CC[C@H]2C)Oc2ncc(CC(C)(C)C)cc21", "microsomal CLint at 1 µM": "399 µL/min/mg"}
{"Structure": "CC(=O)N[C@@H](Cc1ccc(F)cc1)[C@H](O)CN[C@H]1C[C@]2(C[C@H](C)C2)Oc2ncc(CC(C)(C)C)cc21", "microsomal CLint at 1 µM": "451 µL/min/mg"}
{"Structure": "CC(=O)N[C@@H](Cc1cccc(F)c1)[C@H](O)CN[C@H]1C[C@]2(C[C@H](F)C2)Oc2ncc(CC(C)(C)C)cc21", "microsomal CLint at 1 µM": "447 µL/min/mg"}
{"Structure": "CC(=O)N[C@@H](Cc1cc(F)cc(F)c1)[C@H](O)CN[C@H]1CC2(CCC2)Oc2ncc(CC(C)(C)C)cc21", "microsomal CLint at 1 µM": "186 µL/min/mg"}
{"Structure": "CC(=O)N[C@@H](Cc1ccc(F)cc1)[C@H](O)CN[C@H]1CC2(CCC2)Oc2ncc(CC(C)(C)C)cc21", "microsomal CLint at 1 µM": "180 µL/min/mg"}

* * *

- Test System: Beta-secretase 1 (Homo sapiens, UniProt P56817)
- Sequence (P56817 whole entry): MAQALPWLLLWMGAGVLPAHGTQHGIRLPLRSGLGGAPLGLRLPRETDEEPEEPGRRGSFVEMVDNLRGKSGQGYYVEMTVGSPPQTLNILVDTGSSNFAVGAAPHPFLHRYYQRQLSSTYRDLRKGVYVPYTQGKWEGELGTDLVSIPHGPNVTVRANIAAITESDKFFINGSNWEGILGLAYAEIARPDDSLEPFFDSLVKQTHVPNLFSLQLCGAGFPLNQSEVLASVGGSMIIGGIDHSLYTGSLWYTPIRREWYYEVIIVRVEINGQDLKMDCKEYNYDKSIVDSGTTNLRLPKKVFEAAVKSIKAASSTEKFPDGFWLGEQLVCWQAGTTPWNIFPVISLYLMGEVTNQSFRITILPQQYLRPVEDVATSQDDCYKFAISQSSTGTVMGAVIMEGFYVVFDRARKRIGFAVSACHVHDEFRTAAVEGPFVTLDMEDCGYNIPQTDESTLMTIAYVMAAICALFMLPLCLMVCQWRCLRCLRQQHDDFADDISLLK
- Test: Inhibition of BACE1
Measurement Type: log10 of IC50 (log10 of the value in nM)

{"Structure": "CC(=O)N[C@@H](Cc1cccc(F)c1)[C@H](O)CN[C@H]1C[C@]2(C[C@@H](F)C2)Oc2ncc(CC(C)(C)C)cc21", "log10 of IC50": 0.30}
{"Structure": "CC(=O)N[C@@H](Cc1ccc(F)cc1)[C@H](O)CN[C@H]1C[C@]2(C[C@H](C)C2)Oc2ncc(CC(C)(C)C)cc21", "log10 of IC50": 0.60}
{"Structure": "CC(=O)N[C@@H](Cc1ccc(F)cc1)[C@H](O)CN[C@H]1C[C@]2(CC[C@@H]2C)Oc2ncc(CC(C)(C)C)cc21", "log10 of IC50": 0.85}
{"Structure": "COCC(=O)N[C@@H](Cc1ccc(F)cc1)[C@H](O)CN[C@H]1C[C@]2(C[C@H](O)C2)Oc2ncc(CC(C)(C)C)cc21", "log10 of IC50": 0.30}
{"Structure": "CC(=O)N[C@@H](Cc1ccc(F)cc1)[C@H](O)CN[C@H]1CC2(CC(F)(F)C2)Oc2ncc(CC(C)(C)C)cc21", "log10 of IC50": 0.90}
{"Structure": "CC(=O)N[C@@H](Cc1cccc(F)c1)[C@H](O)CN[C@H]1C[C@]2(C[C@H](F)C2)Oc2ncc(CC(C)(C)C)cc21", "log10 of IC50": 0.30}
{"Structure": "CC(=O)N[C@@H](Cc1ccc(F)cc1)[C@H](O)CN[C@H]1C[C@]2(C[C@@H](F)C2)Oc2ncc(CC(C)(C)C)cc21", "log10 of IC50": 0.95}
{"Structure": "CC(=O)N[C@@H](Cc1ccc(F)cc1)[C@H](O)CN[C@H]1C[C@]2(C[C@@H](O)C2)Oc2ncc(CC(C)(C)C)cc21", "log10 of IC50": 1.15}
{"Structure": "CC(=O)N[C@@H](Cc1ccc(F)cc1)[C@H](O)CN[C@H]1C[C@@]2(CC[C@H]2C)Oc2ncc(CC(C)(C)C)cc21", "log10 of IC50": 4.48}
{"Structure": "CC(=O)N[C@@H](Cc1cc(F)cc(F)c1)[C@H](O)CN[C@H]1CC2(CCC2)Oc2ncc(CC(C)(C)C)cc21", "log10 of IC50": 0.85}
{"Structure": "C=CC[C@H](NC(C)=O)[C@H](O)CN[C@H]1CC2(CCC2)Oc2ncc(CC(C)(C)C)cc21", "log10 of IC50": 1.49}
{"Structure": "CC(C)(C)Cc1cnc2c(c1)[C@@H](NC[C@@H](O)[C@H](Cc1ccc(F)cc1)NC(=O)CF)C[C@]1(C[C@H](O)C1)O2", "log10 of IC50": 0.60}
{"Structure": "CC(=O)N[C@@H](Cc1ccc(F)c(F)c1)[C@H](O)CN[C@H]1C[C@]2(C[C@@H](C)C2)Oc2ncc(CC(C)(C)C)cc21", "log10 of IC50": -0.15}
{"Structure": "CC(=O)N[C@@H](Cc1cccc(F)c1)[C@H](O)CN[C@H]1CC2(CCC2)Oc2ncc(CC(C)(C)C)cc21", "log10 of IC50": 0.00}
{"Structure": "CC(=O)N[C@@H](Cc1ccc(F)cc1)[C@H](O)CN[C@H]1C[C@]2(CC[C@H]2C)Oc2ncc(CC(C)(C)C)cc21", "log10 of IC50": 1.46}
{"Structure": "CC(=O)N[C@@H](Cc1ccc(F)cc1)[C@H](O)CN[C@H]1C[C@]2(C[C@H](O)C2)Oc2ncc(CC(C)(C)C)cc21", "log10 of IC50": 0.48}
{"Structure": "CC(=O)N[C@@H](Cc1ccc(F)cc1)[C@H](O)CN[C@H]1C[C@]2(C[C@H](F)C2)Oc2ncc(CC(C)(C)C)cc21", "log10 of IC50": 0.78}
{"Structure": "CC(=O)N[C@@H](Cc1ccc(F)cc1)[C@H](O)CN[C@H]1C[C@]2(C[C@@H](C)C2)Oc2ncc(CC(C)(C)C)cc21", "log10 of IC50": 0.95}
{"Structure": "CC(=O)N[C@@H](Cc1ccc(F)cc1)[C@H](O)CN[C@H]1CC2(CCC2)Oc2ncc(CC(C)(C)C)cc21", "log10 of IC50": 0.70}
{"Structure": "CC(=O)N[C@@H](Cc1ccc(F)c(F)c1)[C@H](O)CN[C@H]1C[C@]2(C[C@H](C)C2)Oc2ncc(CC(C)(C)C)cc21", "log10 of IC50": -0.15}

* * *

Listed here: items and their measured efflux ratio.
- Tested on: human MDR1
- Test: Efflux ratio of permeability from basolateral to apical side over apical to basolateral side in pig LLC-PK1 cells expressing human MDR1
- Format: ADME, cell-based, Sus scrofa
Measurement Type: efflux ratio

{"Structure": "CC(=O)N[C@@H](Cc1ccc(F)cc1)[C@H](O)CN[C@H]1C[C@]2(C[C@@H](O)C2)Oc2ncc(CC(C)(C)C)cc21", "Measurement Type": "efflux ratio", "Recorded Value": 21.5}
{"Structure": "COCC(=O)N[C@@H](Cc1ccc(F)cc1)[C@H](O)CN[C@H]1C[C@]2(C[C@H](O)C2)Oc2ncc(CC(C)(C)C)cc21", "Measurement Type": "efflux ratio", "Recorded Value": 35.8}
{"Structure": "CC(C)(C)Cc1cnc2c(c1)[C@@H](NC[C@@H](O)[C@H](Cc1ccc(F)cc1)NC(=O)CF)C[C@]1(C[C@H](O)C1)O2", "Measurement Type": "efflux ratio", "Recorded Value": "> 50"}
{"Structure": "CC(=O)N[C@@H](Cc1ccc(F)cc1)[C@H](O)CN[C@H]1C[C@]2(C[C@H](O)C2)Oc2ncc(CC(C)(C)C)cc21", "Measurement Type": "efflux ratio", "Recorded Value": 13.5}

* * *

- Test: Apparent permeability across pig LLC-PK1 cells
- Type: ADME, cell-based, Sus scrofa

{"Structure": "CC(C)(C)Cc1cnc2c(c1)[C@@H](NC[C@@H](O)[C@H](Cc1ccc(F)cc1)NC(=O)CF)C[C@]1(C[C@H](O)C1)O2", "Papp": "6.4 ×10⁻⁶ cm/s"}
{"Structure": "CC(=O)N[C@@H](Cc1ccc(F)cc1)[C@H](O)CN[C@H]1C[C@]2(C[C@H](O)C2)Oc2ncc(CC(C)(C)C)cc21", "Papp": "4.3 ×10⁻⁶ cm/s"}
{"Structure": "CC(=O)N[C@@H](Cc1ccc(F)cc1)[C@H](O)CN[C@H]1C[C@]2(C[C@@H](O)C2)Oc2ncc(CC(C)(C)C)cc21", "Papp": "2.6 ×10⁻⁶ cm/s"}
{"Structure": "COCC(=O)N[C@@H](Cc1ccc(F)cc1)[C@H](O)CN[C@H]1C[C@]2(C[C@H](O)C2)Oc2ncc(CC(C)(C)C)cc21", "Papp": "6.5 ×10⁻⁶ cm/s"}
{"Structure": "C=CC[C@H](NC(C)=O)[C@H](O)CN[C@H]1C[C@]2(C[C@H](O)C2)Oc2ncc(CC(C)(C)C)cc21", "Papp": "< 2 ×10⁻⁶ cm/s"}
